Would you mind telling me the reported stoichiometry N of each entry?
TESTED TARGET: the molecule itself
PROTOCOL TEXT: SEC; re-chromatography after Factor Xa cleavage of the MBP tag; HiLoad 16/600 Superdex 200, 20 mM HEPES pH 7.0, 200 mM NaCl, 4 °C; tetrameric fraction pooled

Some entries whose results are on file:
medium-chain acyl-CoA dehydrogenase (MCAD) wild-type (enzyme, human, UniProt P11310-1 26-421, looked up, medium-chain acyl-CoA dehydrogenase (MCAD), human, cDNA of the ACADM gene cloned into pMALc2X; also called WT; wild-type MCAD; source: E. coli BL21-CodonPlus, purified (MBPTrap, SEC, Factor Xa cleavage, SEC); not shown: MBP, N-terminal, cleaved) KANRQREPGLGFSFEFTEQQKEFQATARKFAREEIIPVAAEYDKTGEYPVPLIRRAWELGLMNTHIPENCGGLGLGTFDACLISEELAYGCTGVQTAIEGNSLGQMPIIIAGNDQQKKKYLGRMTEEPLMCAYCVTEPGAGSDVAGIKTKAEKKGDEYIINGQKMWITNGGKANWYFLLARSDPDPKAPANKAFTGFIVEADTPGIQIGRKELNMGQRCSDTRGIVFEDVKVPKENVLIGDGAGFKVAMGAFDKTRPVVAAGAVGLAQRALDEATKYALERKTFGKLLVEHQAISFMLAEMAMKVELARMSYQRAAWEVDSGRRNTYYASIAKAFAGDIANQLATDAVQILGGNGFNTEYPVEKLMRDAKIYQIYEGTSQIQRLIVAREHIDKYKN	4
MCAD p.Arg206Cys (enzyme, human, UniProt P11310-1 26-421, looked up, medium-chain acyl-CoA dehydrogenase (MCAD), human, ACADM cDNA in pMALc2X with a missense mutation found in newborn screening; number counts on the precursor (initiator methionine +1); also called R206C; p.Arg181Cys; source: E. coli DH5α co-transformed with pGroESL, purified (MBPTrap, SEC, Factor Xa cleavage, SEC); not shown: MBP, N-terminal, cleaved) KANRQREPGLGFSFEFTEQQKEFQATARKFAREEIIPVAAEYDKTGEYPVPLIRRAWELGLMNTHIPENCGGLGLGTFDACLISEELAYGCTGVQTAIEGNSLGQMPIIIAGNDQQKKKYLGRMTEEPLMCAYCVTEPGAGSDVAGIKTKAEKKGDEYIINGQKMWITNGGKANWYFLLACSDPDPKAPANKAFTGFIVEADTPGIQIGRKELNMGQRCSDTRGIVFEDVKVPKENVLIGDGAGFKVAMGAFDKTRPVVAAGAVGLAQRALDEATKYALERKTFGKLLVEHQAISFMLAEMAMKVELARMSYQRAAWEVDSGRRNTYYASIAKAFAGDIANQLATDAVQILGGNGFNTEYPVEKLMRDAKIYQIYEGTSQIQRLIVAREHIDKYKN	4
MCAD p.Tyr158His (enzyme, human, UniProt P11310-1 26-421, looked up, medium-chain acyl-CoA dehydrogenase (MCAD), human, ACADM cDNA in pMALc2X with a missense mutation found in newborn screening; number counts on the precursor (initiator methionine +1); also called Y158H; p.Tyr133His; source: E. coli DH5α co-transformed with pGroESL, purified (MBPTrap, SEC, Factor Xa cleavage, SEC); not shown: MBP, N-terminal, cleaved) KANRQREPGLGFSFEFTEQQKEFQATARKFAREEIIPVAAEYDKTGEYPVPLIRRAWELGLMNTHIPENCGGLGLGTFDACLISEELAYGCTGVQTAIEGNSLGQMPIIIAGNDQQKKKYLGRMTEEPLMCAHCVTEPGAGSDVAGIKTKAEKKGDEYIINGQKMWITNGGKANWYFLLARSDPDPKAPANKAFTGFIVEADTPGIQIGRKELNMGQRCSDTRGIVFEDVKVPKENVLIGDGAGFKVAMGAFDKTRPVVAAGAVGLAQRALDEATKYALERKTFGKLLVEHQAISFMLAEMAMKVELARMSYQRAAWEVDSGRRNTYYASIAKAFAGDIANQLATDAVQILGGNGFNTEYPVEKLMRDAKIYQIYEGTSQIQRLIVAREHIDKYKN	4
MCAD p.Arg334Lys (enzyme, human, UniProt P11310-1 26-421, looked up, medium-chain acyl-CoA dehydrogenase (MCAD), human, ACADM cDNA in pMALc2X with a missense mutation found in newborn screening; number counts on the precursor (initiator methionine +1); also called R334K; p.Arg309Lys; source: E. coli DH5α co-transformed with pGroESL, purified (MBPTrap, SEC, Factor Xa cleavage, SEC); not shown: MBP, N-terminal, cleaved) KANRQREPGLGFSFEFTEQQKEFQATARKFAREEIIPVAAEYDKTGEYPVPLIRRAWELGLMNTHIPENCGGLGLGTFDACLISEELAYGCTGVQTAIEGNSLGQMPIIIAGNDQQKKKYLGRMTEEPLMCAYCVTEPGAGSDVAGIKTKAEKKGDEYIINGQKMWITNGGKANWYFLLARSDPDPKAPANKAFTGFIVEADTPGIQIGRKELNMGQRCSDTRGIVFEDVKVPKENVLIGDGAGFKVAMGAFDKTRPVVAAGAVGLAQRALDEATKYALERKTFGKLLVEHQAISFMLAEMAMKVELAKMSYQRAAWEVDSGRRNTYYASIAKAFAGDIANQLATDAVQILGGNGFNTEYPVEKLMRDAKIYQIYEGTSQIQRLIVAREHIDKYKN	4
MCAD p.Tyr67His (enzyme, human, UniProt P11310-1 26-421, looked up, medium-chain acyl-CoA dehydrogenase (MCAD), human, ACADM cDNA in pMALc2X with a missense mutation found in newborn screening; number counts on the precursor (initiator methionine +1); also called Y67H; p.Tyr42His; source: E. coli DH5α co-transformed with pGroESL, purified (MBPTrap, SEC, Factor Xa cleavage, SEC); not shown: MBP, N-terminal, cleaved) KANRQREPGLGFSFEFTEQQKEFQATARKFAREEIIPVAAEHDKTGEYPVPLIRRAWELGLMNTHIPENCGGLGLGTFDACLISEELAYGCTGVQTAIEGNSLGQMPIIIAGNDQQKKKYLGRMTEEPLMCAYCVTEPGAGSDVAGIKTKAEKKGDEYIINGQKMWITNGGKANWYFLLARSDPDPKAPANKAFTGFIVEADTPGIQIGRKELNMGQRCSDTRGIVFEDVKVPKENVLIGDGAGFKVAMGAFDKTRPVVAAGAVGLAQRALDEATKYALERKTFGKLLVEHQAISFMLAEMAMKVELARMSYQRAAWEVDSGRRNTYYASIAKAFAGDIANQLATDAVQILGGNGFNTEYPVEKLMRDAKIYQIYEGTSQIQRLIVAREHIDKYKN	4
MCAD p.Arg413Ser (enzyme, human, UniProt P11310-1 26-421, looked up, medium-chain acyl-CoA dehydrogenase (MCAD), human, ACADM cDNA in pMALc2X with a missense mutation found in newborn screening; number counts on the precursor (initiator methionine +1); also called R413S; p.Arg388Ser; source: E. coli DH5α co-transformed with pGroESL, purified (MBPTrap, SEC, Factor Xa cleavage, SEC); not shown: MBP, N-terminal, cleaved) KANRQREPGLGFSFEFTEQQKEFQATARKFAREEIIPVAAEYDKTGEYPVPLIRRAWELGLMNTHIPENCGGLGLGTFDACLISEELAYGCTGVQTAIEGNSLGQMPIIIAGNDQQKKKYLGRMTEEPLMCAYCVTEPGAGSDVAGIKTKAEKKGDEYIINGQKMWITNGGKANWYFLLARSDPDPKAPANKAFTGFIVEADTPGIQIGRKELNMGQRCSDTRGIVFEDVKVPKENVLIGDGAGFKVAMGAFDKTRPVVAAGAVGLAQRALDEATKYALERKTFGKLLVEHQAISFMLAEMAMKVELARMSYQRAAWEVDSGRRNTYYASIAKAFAGDIANQLATDAVQILGGNGFNTEYPVEKLMRDAKIYQIYEGTSQIQRLIVASEHIDKYKN	4

Provide stoichiometry N values for the following items, in order.
1. MCAD p.Lys329Glu (enzyme, human, UniProt P11310-1 26-421, looked up, medium-chain acyl-CoA dehydrogenase (MCAD), human, ACADM cDNA in pMALc2X with a missense mutation found in patients; number counts on the precursor (initiator methionine +1); also called K329E; p.Lys304Glu; source: E. coli DH5α co-transformed with pGroESL, purified (MBPTrap, SEC, Factor Xa cleavage, SEC); not shown: MBP, N-terminal, cleaved) KANRQREPGLGFSFEFTEQQKEFQATARKFAREEIIPVAAEYDKTGEYPVPLIRRAWELGLMNTHIPENCGGLGLGTFDACLISEELAYGCTGVQTAIEGNSLGQMPIIIAGNDQQKKKYLGRMTEEPLMCAYCVTEPGAGSDVAGIKTKAEKKGDEYIINGQKMWITNGGKANWYFLLARSDPDPKAPANKAFTGFIVEADTPGIQIGRKELNMGQRCSDTRGIVFEDVKVPKENVLIGDGAGFKVAMGAFDKTRPVVAAGAVGLAQRALDEATKYALERKTFGKLLVEHQAISFMLAEMAMEVELARMSYQRAAWEVDSGRRNTYYASIAKAFAGDIANQLATDAVQILGGNGFNTEYPVEKLMRDAKIYQIYEGTSQIQRLIVAREHIDKYKN
2. MCAD p.Asp266Gly (enzyme, human, UniProt P11310-1 26-421, looked up, medium-chain acyl-CoA dehydrogenase (MCAD), human, ACADM cDNA in pMALc2X with a missense mutation found in newborn screening; number counts on the precursor (initiator methionine +1); also called D266G; p.Asp241Gly; source: E. coli DH5α co-transformed with pGroESL, purified (MBPTrap, SEC, Factor Xa cleavage, SEC); not shown: MBP, N-terminal, cleaved) KANRQREPGLGFSFEFTEQQKEFQATARKFAREEIIPVAAEYDKTGEYPVPLIRRAWELGLMNTHIPENCGGLGLGTFDACLISEELAYGCTGVQTAIEGNSLGQMPIIIAGNDQQKKKYLGRMTEEPLMCAYCVTEPGAGSDVAGIKTKAEKKGDEYIINGQKMWITNGGKANWYFLLARSDPDPKAPANKAFTGFIVEADTPGIQIGRKELNMGQRCSDTRGIVFEDVKVPKENVLIGGGAGFKVAMGAFDKTRPVVAAGAVGLAQRALDEATKYALERKTFGKLLVEHQAISFMLAEMAMKVELARMSYQRAAWEVDSGRRNTYYASIAKAFAGDIANQLATDAVQILGGNGFNTEYPVEKLMRDAKIYQIYEGTSQIQRLIVAREHIDKYKN

4
4
